Test system: CCRIS mutagenicity, Ames/micronucleus/aberration tests
Assay: CCRIS mutagenicity studies
Conditions: Test System: AMES SALMONELLA TYPHIMURIUM; Strain/Indicator: TA1535; Metabolic Activation: NONE; Method: PREINCUBATION
Activity calls are given as the source filed them. No rule for the calls is given here.
Thanks in advance; please answer with one of these: 1.0 (active), 0.0 (inactive)

Past entries and their recorded results:
{"molecule": "O=C(ON=C1C=CC(=NOC(=O)c2ccccc2)C=C1)c1ccccc1", "label value": 0.0}
{"molecule": "[Cl][Ti]([Cl])[Cl]", "label value": 0.0}
{"molecule": "[Cl][Fe]([Cl])[Cl]", "label value": 0.0}
{"molecule": "C=C1C/C(=C/C)C(=O)O[C@@H]2CCN3CC=C(COC(=O)[C@]1(C)O)[C@H]23", "label value": 0.0}
{"molecule": "[Cl][Pd][Cl]", "label value": 0.0}
{"molecule": "O=C(O)/C=C/c1cccc([N+](=O)[O-])c1", "label value": 1.0}

Lookup: In this assay, the call recorded for CCCCC(CC)COCCCN (stereo not drawn) was what?
Found: 0.0

Lookup: Let us now turn to O=C(O)[C@H](O)[C@@H](O)C(=O)O
Found: 0.0

Lookup: Next molecule: C(=C/c1ccccc1)/c1ccccc1
Found: 0.0

Lookup: c1ccc2nc3ccccc3cc2c1 , same question.
Found: 0.0

Lookup: // next record CCCCCCCCCCCC[S][Sn]([CH2]CCC)([CH2]CCC)[S]CCCCCCCCCCCC
Found: 0.0

Lookup: Cool, now O=c1[nH]cc(F)c(=O)[nH]1
Found: 0.0

Lookup: Please give the result for Nc1ccn([C@@H]2O[C@H](CO)[C@@H](O)[C@@H]2O)c(=O)n1 too.
Found: 0.0

* * *

Test system: CCRIS mutagenicity, Ames/micronucleus/aberration tests
Test: CCRIS mutagenicity studies
Conditions: Test System: AMES SALMONELLA TYPHIMURIUM; Strain/Indicator: TA100; Metabolic Activation: NONE; Method: STANDARD PLATE
Calls of active or inactive are those of the source. The rule behind the calls is not given here.
Entry note: the call must match one of 1 (yes) for active, 0 (no) for inactive

Here's what some known entries look like.
{"compound": "Fc1ccc(CN2C3c4ccccc4-c4ccccc4C32)cc1 (centres undefined)", "label value": "1 (yes)"}
{"compound": "CCN[C@@H](C)C[C@H](C)NCC.[Cl-].[Cl-].[Pt+2]", "label value": "1 (yes)"}
{"compound": "C[C@@H]1C[C@@]2(C)[C@@H](CC[C@@H]3[C@@H]2CC[C@]2(C)[C@@H](O)CC[C@@H]32)CC1=O", "label value": "0 (no)"}
{"compound": "Nc1ccc(/C=C\\c2ccc([N+](=O)[O-])cc2)cc1", "label value": "0 (no)"}
{"compound": "O=C(CBr)c1oc([N+](=O)[O-])c(-c2ccccc2)c1-c1ccccc1", "label value": "1 (yes)"}
{"compound": "COc1ccc(-c2nc(-c3ccc(C)cc3C)[nH]c2-c2ccc(OC)cc2)cc1", "label value": "1 (yes)"}

Lookup: Kindly provide the recorded test outcome for the following compound: COc1ccc(/C=C/c2ccc([N+](=O)[O-])cc2)cc1
Found: 1 (yes)

Lookup: Request: CCn1cc(C(=O)O)c(=O)c2cc(F)c(N3CCNC(C)C3)c(F)c21 (centres undefined)
Found: 0 (no)

Lookup: And the next one, OCc1ccc(Cl)cc1 ?
Found: 0 (no)

Lookup: Let us now turn to COc1cc(S(=O)(=O)O)c(C)cc1N=Nc1c(O)ccc2cc(S(=O)(=O)O)ccc12
Found: 0 (no)

Lookup: Follow-up entry: c1ccc2c(c1)c1cccc3ccc4cccc2c4c31
Found: 0 (no)

Lookup: What do we get for C=CCCC1CO1 (centres undefined) ?
Found: 1 (yes)

Lookup: Same question, COc1ccc([C@H]2O[C@H]2C(=O)c2ccccc2)cc1 this time
Found: 1 (yes)

Lookup: Now give it for Cc1cccc(Nc2ccncc2S(=O)(=O)NC(=O)NC(C)C)c1 too.
Found: 0 (no)

Lookup: What do we get for O=[N+]([O-])c1ccc2[nH]ncc2c1 ?
Found: 1 (yes)

Lookup: Same read-out for CSC[C@H](NC(=O)COc1cccc2cnccc12)C(=O)N[C@@H](Cc1ccccc1)[C@H](O)C(=O)N1CSC[C@H]1C(=O)NC(C)(C)C ?
Found: 0 (no)

src = PubChem BioAssay AID1259407
